biological target: T1, human CD3 protein (human, UniProt P07766 23-126; P04234 22-105); assay: ELISA, plate-coated CD3;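 note: binding to plate-immobilized human CD3 protein, bound antibody detected with peroxidase-labelled anti-human IgG and TMB, read as absorbance at 450 nm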
T1 construct: ELISA coating protein; also called Human CD3D & CD3E Heterodimer Protein
T1 sequence (P07766 23-126 limits assumed, chain 1 of 2): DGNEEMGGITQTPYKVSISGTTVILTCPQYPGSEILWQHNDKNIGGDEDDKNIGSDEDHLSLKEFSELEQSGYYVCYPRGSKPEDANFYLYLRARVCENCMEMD
T1 sequence (P04234 22-105 limits assumed, chain 2 of 2): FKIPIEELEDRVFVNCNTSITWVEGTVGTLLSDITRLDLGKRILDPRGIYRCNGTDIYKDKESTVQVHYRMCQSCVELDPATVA
Could you please mark True for values of EC50 below 3 ng/mL and False for values at or above it?

As a guide, the following entries are already answered.
1) Hu192A7B9-18 (antibody, V domains shown, humanized mAb) VH: EVQLQESGPGLVKPSETLSLTCTVSGFSLTSYNVHWVRQPPGKGLEWMGRMRYNGDTSYNSALKSRLTISRDTSKNQVSLKLSSVTAADTAVYYCTRGPRGGYYSALFDYWGQGTMVTVSS VL: DIQMTQSPSSLSASVGDRVTITCKASQNINRYLNWYQQKPGKAPKLLISIANSLQTGIPSRFSGSGSGTDFTLTISSLQPEDFATYYCLQHNSWYTFGQGTKLEIK : False
2) Hu153A6B1-17 (antibody, V domains shown, humanized mAb) VH: EVQLQESGPGLVKPSETLSLTCTVSGFSISSYNIHWVRQPPGKGLEWMGRIRYNGDTSYNSALKSRLTISRDTSKNQVSLKLSSVTAADTAVYYCTRGPYGGSREPLFDYWGQGTMVTVSS VL: DIQMTQSPSSLSASVGDRVTITCKTSQNINKYLNWFQQKPGKAPKLLIYTTNNLQTGIPSRFSGSGSGTDFTLTISSLQPEDFATYFCLQHGSGYTFGQGTKLEIK : True
3) Hu155A9B1-5 (antibody, V domains shown, humanized mAb; also called 155z5) VH: EVQLQESGPGLVKPSETLSLTCTVSGFSISSYNVHWVRQPPGKGLEWMGRVRYNGDTSYNSALKSRLTISRDTSKNQASLKLSSVTAADTAVYYCTRGPYGGSSEPLFDYWGQGTMVTVSS VL: DIQMTQSPSSLSASVGDRVTITCKASQNINKYLNWYQQKPGKAPRLLIYTTNNLQTGVPSRFSGSGSGTDFTLTISSLQPEDFATYYCLQHNSGYTFGQGTKLEIK : False

Please turn your attention to the following entry.
[ask] Confirm or reject: EC50 of Hu155A9B1-8 (antibody, V domains shown, humanized mAb; also called 155z8) VH: EVQLQESGPGLVKPSETLSLTCTVSGGSISSYNVHWVRQPPGKGLEWIGRVRYNGDTSYNSALKSRVTISRDTSKNQFSLKLSSVTAADTAVYYCARGPYGGSSEPLFDYWGQGTMVTVSS VL: DIQMTQSPSSLSASVGDRVTITCKASQNINKYLNWFQQKPGKAPRLLIYTTNNLQTGIPSRFSGSGSGTDFTLTISSLQPEDFATYYCLQHNSGYTFGQGTKLEIK lies strictly below 3 ng/mL
[reply] False
